system: Astrocyte; assay: Increase of EAAT2 expression in mouse primary astrocytes at 10 uM after 4 hrs by Western blot analysis relative to control; assay type: functional
Activity calls are given as the source filed them. The calls are words filed in the database; no cut-off is given here.
parameter-measured: fold change (FC)

molecule=c1ccc(CSc2ccc(-c3ccccn3)nn2)cc1 assay_result=1.3
molecule=Fc1cccc(Cl)c1CSc1ccc(-c2ccncc2)nn1 assay_result=inactive
molecule=Clc1ccc(Cl)c(CSc2ccc(-c3ccccn3)nn2)c1 assay_result=1.4
molecule=Clc1cccc(CSc2ccc(-c3ccccn3)nn2)c1 assay_result=2.1
molecule=c1ccc(CSc2ccc(-c3ccccn3)cc2)cc1 assay_result=1.2
molecule=Cc1cc(C)c(CSc2ccc(-c3ccccn3)nn2)c(C)c1 assay_result=1.7

Quick one: fold change (FC) for `Clc1cccc(CSc2ccc(-c3ccccn3)nn2)c1Cl` ? inactive

Quick one: fold change (FC) for `CCSc1ccc(-c2ccccn2)nn1` ? 1.6

Quick one: fold change (FC) for CC(Sc1ccc(-c2ccccn2)nn1)c1c(F)cccc1Cl (stereo not drawn) ? 1.7

Quick one: fold change (FC) for `Fc1cccc(Cl)c1CSc1ccc(-c2ccccn2)nn1` ? inactive

This collection of values is drawn from ChEMBL document CHEMBL1833913.
